# TEST_SYSTEM: Dual specificity calcium/calmodulin-dependent 3',5'-cyclic nucleotide phosphodiesterase 1A (Homo sapiens)
# Sequence (P54750 whole entry): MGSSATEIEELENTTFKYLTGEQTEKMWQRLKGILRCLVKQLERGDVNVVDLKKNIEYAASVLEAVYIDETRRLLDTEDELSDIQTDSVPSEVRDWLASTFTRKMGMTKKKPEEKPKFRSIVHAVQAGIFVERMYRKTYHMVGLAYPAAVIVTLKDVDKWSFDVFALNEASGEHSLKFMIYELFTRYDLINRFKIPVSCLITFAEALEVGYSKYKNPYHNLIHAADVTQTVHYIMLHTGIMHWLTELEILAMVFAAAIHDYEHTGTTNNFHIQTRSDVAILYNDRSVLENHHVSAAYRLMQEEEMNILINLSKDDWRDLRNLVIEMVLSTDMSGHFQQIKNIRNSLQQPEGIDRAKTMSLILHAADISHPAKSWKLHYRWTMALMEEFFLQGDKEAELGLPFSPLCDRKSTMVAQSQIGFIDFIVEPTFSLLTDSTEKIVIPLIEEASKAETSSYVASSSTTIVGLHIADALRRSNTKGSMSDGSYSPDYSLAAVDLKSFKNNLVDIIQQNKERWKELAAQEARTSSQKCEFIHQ
# EXPERIMENT_SUMMARY: Ca2+-Calmodulin Dependent PDE Enzyme Assays: PDE1B, PDE1A, and PDE1C are cloned and purified following standard protein generation procedures. The assay buffer is prepared to give a final concentration in the assay of 50 mM Tris-HCl, 50 mM MgCl2, 4 mM CaCl2, 0.1% Bovine serum albumin and 6 U/ml Calmodulin in water, at pH 7.5. The final enzyme concentration is 0.25, 0.074 and 0.0012 nM, for PDE1A, PDE1B and PDE1C respectively. The reactions are started by addition of the substrate, [3H]cAMP, to give a final concentration of 47 nM.
pIC50: −log10 of the molar value.
READOUT_LABEL: pIC50

1: CCCCn1c(=O)c2nnc(C3(C4CC4)CC3)n2c2ncc(CO)cc21
2: CCCCn1c(=O)c2nnc(C3(C4CC4)CC3)n2c2ncc(CC)cc21
Prompt line: Given 1 and given 2 , which shows the smaller recorded pIC50? Pick one; state its label.
Response line: 1
